# Test system: HOP-92 NSCLC
# ASSAY_SUMMARY: NCI tumour cell line growth inhibition, 48 h
TGI by entry:
Numbers only; they are read as µM.

For orientation, consider the following solved cases.
molecule=Fc1ccc(-c2nn(-c3ccccc3)cc2-c2nc3ccccc3o2)cc1 tested_system="HOP-92 NSCLC" measurement_type=TGI measured_result=4.48
molecule=COc1cc2c(c(OC)c1OC)-c1ccc(NCc3ccccc3)c(=O)cc1[C@@H](NC(C)=O)CC2 tested_system="HOP-92 NSCLC" measurement_type=TGI measured_result=4.1
molecule="O=C1C(C=NCCc2c[nH]c3ccccc23)C(C(F)(F)F)=NN1c1nc2ccccc2s1 (stereo unspecified)" tested_system="HOP-92 NSCLC" measurement_type=TGI measured_result=48.5
molecule=O=C1C(Br)=Cc2c(Cl)sc(Cl)c21 tested_system="HOP-92 NSCLC" measurement_type=TGI measured_result=7
molecule=CN(C)c1ccc2c(c1)oc(=O)c1ccccc12 tested_system="HOP-92 NSCLC" measurement_type=TGI measured_result=30

Now look at this one.
Sample O=C1/C(=C/c2ccc([N+](=O)[O-])cc2)CNC/C1=C\c1ccc([N+](=O)[O-])cc1 — what was its TGI?
59

---

# Test system: NCI-H23 lung
# ASSAY_SUMMARY: NCI tumour cell line growth inhibition, 48 h; in the data active = GI50 below about 0.43 µM; inactive = the rest
Write down the outcome that applies. Available outcomes: Y = active, N = inactive

Examples with answers:
compound=COc1cc([C@@H]2c3cc4c(cc3C[C@H]3COC(=O)[C@@H]32)OCO4)cc(OC)c1OC tested_system="NCI-H23 lung" assigned_category=Y
compound=O=C(/C=C(\[O-])c1ccccc1)CCCCCCC(=O)/C=C(\[O-])c1ccccc1.O=C(/C=C(\[O-])c1ccccc1)CCCCCCC(=O)/C=C(\[O-])c1ccccc1.O=C(/C=C(\[O-])c1ccccc1)CCCCCCC(=O)/C=C(\[O-])c1ccccc1.[La+3].[La+3] tested_system="NCI-H23 lung" assigned_category=N

With those in mind, consider the next compound.
What did the test return for Cc1c(N2C(=O)/C(=C\c3ccccc3O)N=C2c2ccccc2)c(=O)n(-c2ccccc2)n1C ?
N

---

# System: NCI-H460 lung
# ASSAY_SUMMARY: NCI tumour cell line growth inhibition, 48 h
MEASUREMENT_TYPE: TGI

Please review the entries below; each comes with its answer.
molecule="O=C1CCC(NC(=O)c2ccccc2)C(=O)N1 (stereo not drawn)" measured_result="> 100 µM"
molecule=CCn1c(=O)c2c3cc(O)ccc3oc2c2ccc(O)cc21 measured_result="> 100 µM"
molecule="CCOC(=O)C1C(=O)CC(O)(c2ccccc2)C(C(=O)OCC)C1c1ccc(OC)cc1 (stereo not drawn)" measured_result="> 100 µM"
molecule=OCCNCO measured_result="> 100 µM"

Kindly review the next molecule as well.
Name the reported TGI value associated with the molecule NCCCC(N)C(=O)O (stereo not drawn)
> 100 µM

---

# System: MOLT-4 leukemia
# ASSAY_SUMMARY: NCI tumour cell line growth inhibition, 48 h; in the data active = GI50 below about 0.43 µM; inactive = the rest
Where a SMILES comes first, the peptide text is derived from it. [ ]: non-standard residue; d: D form. The star is where a group is joined. Bn2Val = CC(C)[C@@H](C(=O)*)N(Cc1ccccc1)Cc1ccccc1; NH(3,4-diMeO-benzyl) = COc1ccc(CN*)cc1OC; NMeV = CN[C@H](C(=O)O)C(C)C; dNMeA = CN[C@H](C)C(=O)O
Please reply with one of these outcomes: 1 (yes) for active, 0 (no) for inactive

Worked examples, 5 compounds total:
compound=O=C1CSC(N2CCN(c3cccc(Cl)c3)CC2)=N1 tested_system="MOLT-4 leukemia" assigned_category="0 (no)"
compound=CN=C1NC(=O)/C(=C/c2ccc3ncccc3c2)S1 tested_system="MOLT-4 leukemia" assigned_category="0 (no)"
compound=O=C1c2ccccc2C(=O)c2c1ccc1[nH]c(CCl)nc21 tested_system="MOLT-4 leukemia" assigned_category="0 (no)"
compound=O=c1cc(-c2ccc3c(c2)OCCO3)oc2cc(Cl)ccc12 tested_system="MOLT-4 leukemia" assigned_category="0 (no)"
compound=CCOC(=O)c1cc(-c2ccc([N+](=O)[O-])cc2)n(-c2ccc(C(=O)O)c(O)c2)c1C tested_system="MOLT-4 leukemia" assigned_category="0 (no)"

Per the records of this test, what outcome belongs to COc1nc2c(cc1S(=O)(=O)c1ccccc1)CCc1c-2cnn1-c1ccccc1Cl ?
0 (no)

Please answer likewise for COc1ccc(CNC(=O)[C@@H](C)N(C)C(=O)[C@@H]2CCCN2C(=O)[C@H](C(C)C)N(C)C(=O)[C@@H](NC(=O)[C@H](C(C)C)N(Cc2ccccc2)Cc2ccccc2)C(C)C)cc1OC (Bn2Val-V[NMeV]P[dNMeA]-{NH(3,4-diMeO-benzyl)})
0 (no)

Query COc1ccccc1NC(=O)c1ccc(/C=C/C(=O)c2nccn2C)cc1 next
0 (no)

COc1cccc(-c2nn(-c3ccccc3)cc2-c2ccnc(NCCCNS(=O)(=O)c3cccc(F)c3)c2)c1 ?
0 (no)

Can you handle COC(=O)[C@@H](C)C[C@H](Cc1ccccc1)NC(=O)c1nc([C@@H](C[C@H](C(C)C)N(C)C(=O)[C@@H](NC(=O)[C@H]2CCCN2C)C(C)C)OC(C)=O)sc1C next?
1 (yes)

Now the same for OC(c1cccc(C(F)(F)F)c1)c1cnccc1NC1CCCCCC1 (centres undefined)
0 (no)

Also need COc1cc2c(c(OC)c1OC)-c1ccc(NCc3ccccc3)c(=O)cc1[C@@H](NC(C)=O)CC2 , thanks.
0 (no)

Also, S=C1NCCN1C1=Nc2ccccc2CO1 please.
0 (no)

Also check Cc1c(Cl)cccc1Nc1ncccc1C(=O)O
0 (no)
